# assay-target: T1, NPY2 receptor (human (printed as hNPY2R), UniProt P49146 1-381)
# T1 sequence (looked up): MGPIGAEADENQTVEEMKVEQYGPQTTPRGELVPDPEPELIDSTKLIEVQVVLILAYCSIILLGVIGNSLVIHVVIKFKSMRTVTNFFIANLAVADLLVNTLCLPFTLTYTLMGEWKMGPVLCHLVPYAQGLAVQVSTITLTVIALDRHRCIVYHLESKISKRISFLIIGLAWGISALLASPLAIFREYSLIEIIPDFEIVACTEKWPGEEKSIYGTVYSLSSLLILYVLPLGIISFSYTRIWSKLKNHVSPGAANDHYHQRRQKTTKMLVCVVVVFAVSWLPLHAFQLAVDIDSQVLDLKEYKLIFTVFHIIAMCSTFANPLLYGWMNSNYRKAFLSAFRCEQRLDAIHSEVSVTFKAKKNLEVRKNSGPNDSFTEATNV
# method: cell-based or functional assay
Starred links: 1 amine or outer side, 2 acyl side, 3 side chain; linkers in the order of their positions; H or OH if unused. Non-standard residues stand in square brackets, D forms with d. Groups on a side chain read outwards from the residue. No end group written: not given here. *: point of attachment. C18 diacid = O=C(O)CCCCCCCCCCCCCCCCC(=O)*; γGlu = O=C(O)[C@H](CCC(=O)[*:2])N[*:1]; AEEA = NCCOCCOCC(=O)O; Aib = CC(C)(N)C(=O)O
Listed binders paired with reported EC50 hNPY2R 0.5% hP (CreLuc)

{"columns": ["binder", "EC50 hNPY2R 0.5% hP (CreLuc) (nM)"],
 "data": [
  ["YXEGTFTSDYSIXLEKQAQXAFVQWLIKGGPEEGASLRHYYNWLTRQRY (Aib at 2, 13, 20; K28 side chain carries C18DA-E-E-E-E-E-E-eLys (SEQ ID NO: 643); C-terminal amide) [Compound 196]", 25.2],
  ["Y[Aib]EGTFTSDYSI[Aib]LEKQAQ[Aib]AFVQWLIK([AEEA-AEEA-Glu-Glu-Glu-Glu-C18 diacid])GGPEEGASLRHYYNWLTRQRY-NH2 (also: TFA salt) [Compound 177]", 18.7],
  ["Y[Aib]EGTFTSDYSI[Aib]LEKQAQ[Aib]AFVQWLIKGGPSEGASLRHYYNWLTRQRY-NH2 (not fully specified (residue 28); also: TFA salt) [Compound 245]", 24.5],
  ["Y[Aib]EGTFTSDYSI[Aib]LEKQAQ[Aib]AFVEWLIK([AEEA-AEEA-γGlu-γGlu-γGlu-C18 diacid])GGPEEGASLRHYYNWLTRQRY-NH2 (also: TFA salt) [Compound 248]", 18.7]
]}

Just for reference, patent US20240247080A1 is where these values come from.
